Test system: HeLa Kyoto
Experimental protocol: solubility change mitosis vs G1/S (difference of NP-40 vs SDS log2 ratios) (log2 ratio difference); higher = more soluble in mitosis
Note to self: values exactly at -0.1 are Satisfied. So solubility change mitosis (log2) at or above -0.1 is Satisfied, below is Not satisfied.

Ask: Item MLYLIGLGLGDAKDITVKGLEVVRRCSRVYLEAYTSVLTVGKEALEEFYGRKLVVADREEVEQEADNILKDADISDVAFLVVGDPFGATTHSDLVLRATKLGIPYRVIHNASIMNAVGCCGLQLYKFGETVSIVFWTDTWRPESFFDKVKKNRQNGMHTLCLLDIKVKEQSLENLIKGRKIYEPPRYMSVNQAAQQLLEIVQNQRIRGEEPAVTEETLCVGLARVGADDQKIAAGTLRQMCTVDLGEPLHSLIITGGSIHPMEMEMLSLFSIPENSSESQSINGL [DPH5] with solubility change mitosis (log2) of -0.1 or above?
Result: Not satisfied

Ask: Item `CAMKMT` with solubility change mitosis (log2) of -0.1 or above?
Result: Satisfied

Ask: Item MTCWLRGVTATFGRPAEWPGYLSHLCGRSAAMDLGPMRKSYRGDREAFEETHLTSLDPVKQFAAWFEEAVQCPDIGEANAMCLATCTRDGKPSARMLLLKGFGKDGFRFFTNFESRKGKELDSNPFASLVFYWEPLNRQVRVEGPVKKLPEEEAECYFHSRPKSSQIGAVVSHQSSVIPDREYLRKKNEELEQLYQDQEVPKPKSWGGYVLYPQVMEFWQGQTNRLHDRIVFRRGLPTGDSPLGPMTHRGEEDWLYERLAP [PNPO] with solubility change mitosis (log2) of -0.1 or above?
Result: Satisfied

Ask: Item MEAVLTEELDEEEQLLRRHRKEKKELQAKIQGMKNAVPKNDKKRRKQLTEDVAKLEKEMEQKHREELEQLKLTTKENKIDSVAVNISNLVLENQPPRISKAQKRREKKAALEKEREERIAEAEIENLTGARHMESEKLAQILAARQLEIKQIPSDGHCMYKAIEDQLKEKDCALTVVALRSQTAEYMQSHVEDFLPFLTNPNTGDMYTPEEFQKYCEDIVNTAAWGGQLELRALSHILQTPIEIIQADSPPIIVGEEYSKKPLILVYMRHAYGLGEHYNSVTRLVNIVTENCS [OTUD6B] with solubility change mitosis (log2) of -0.1 or above?
Result: Satisfied

Ask: Item MGDKIWLPFPVLLLAALPPVLLPGAAGFTPSLDSDFTFTLPAGQKECFYQPMPLKASLEIEYQVLDGAGLDIDFHLASPEGKTLVFEQRKSDGVHTVETEVGDYMFCFDNTFSTISEKVIFFELILDNMGEQAQEQEDWKKYITGTDILDMKLEDILESINSIKSRLSKSGHIQTLLRAFEARDRNIQESNFDRVNFWSMVNLVVMVVVSAIQVYMLKSLFEDKRKSRT [TMED5] with solubility change mitosis (log2) of -0.1 or above?
Result: Not satisfied

Ask: Item MASYYEILDVPRSASADDIKKAYRRKALQWHPDKNPDNKEFAEKKFKEVAEAYEVLSDKHKREIYDRYGREGLTGTGTGPSRAEAGSGGPGFTFTFRSPEEVFREFFGSGDPFAELFDDLGPFSELQNRGSRHSGPFFTFSSSFPGHSDFSSSSFSFSPGAGAFRSVSTSTTFVQGRRITTRRIMENGQERVEVEEDGQLKSVTINGVPDDLALGLELSRREQQPSVTSRSGGTQVQQTPASCPLDSDLSEDEDLQLAMAYSLSEMEAAGKKPAGGREAQHRRQGRPKAQHQDPGLGGTQEGARGEATKRSPSPEEKASRCLIL [DNAJB2] with solubility change mitosis (log2) of -0.1 or above?
Result: Satisfied

###

System: HeLa Kyoto
Experimental protocol: melting temperature (median over replicates), in situ; higher = more thermally stable
Study conditions: cell cycle stage: G1/S
Below, each entry is listed alongside its reported melting temperature.
Lab book: enter the figure in °C, no units written.

Below: 5 sequences and their reported melting temperature.
{"Seq text": "MDAPRQVVNFGPGPAKLPHSVLLEIQKELLDYKGVGISVLEMSHRSSDFAKIINNTENLVRELLAVPDNYKVIFLQGGGCGQFSAVPLNLIGLKAGRCADYVVTGAWSAKAAEEAKKFGTINIVHPKLGSYTKIPDPSTWNLNPDASYVYYCANETVHGVEFDFIPDVKGAVLVCDMSSNFLSKPVDVSKFGVIFAGAQKNVGSAGVTVVIVRDDLLGFALRECPSVLEYKVQAGNSSLYNTPPCFSIYVMGLVLEWIKNNGGAAAMEKLSSIKSQTIYEIIDNSQGFYVCPVEPQNRSKMNIPFRIGNAKGDDALEKRFLDKALELNMLSLKGHRSVGGIRASLYNAVTIEDVQKLAAFMKKFLEMHQL [PSAT1]", "Observable": "melting temperature", "Units of measure": "°C", "Quantitative result": 55.6}
{"Seq text": "MSGEENPASKPTPVQDVQGDGRWMSLHHRFVADSKDKEPEVVFIGDSLVQLMHQCEIWRELFSPLHALNFGIGGDGTQHVLWRLENGELEHIRPKIVVVWVGTNNHGHTAEQVTGGIKAIVQLVNERQPQARVVVLGLLPRGQHPNPLREKNRQVNELVRAALAGHPRAHFLDADPGFVHSDGTISHHDMYDYLHLSRLGYTPVCRALHSLLLRLLAQDQGQGAPLLEPAP [PAFAH1B3]", "Observable": "melting temperature", "Units of measure": "°C", "Quantitative result": 50.6}
{"Seq text": "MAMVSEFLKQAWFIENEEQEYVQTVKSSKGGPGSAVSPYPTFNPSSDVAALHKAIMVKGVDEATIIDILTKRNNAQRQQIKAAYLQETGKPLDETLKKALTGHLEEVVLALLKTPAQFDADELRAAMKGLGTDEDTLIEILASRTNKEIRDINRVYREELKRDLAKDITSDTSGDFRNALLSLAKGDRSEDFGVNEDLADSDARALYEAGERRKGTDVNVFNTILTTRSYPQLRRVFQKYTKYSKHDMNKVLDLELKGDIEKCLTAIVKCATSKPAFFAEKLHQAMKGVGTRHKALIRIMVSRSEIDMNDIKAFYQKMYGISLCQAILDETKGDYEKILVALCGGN [ANXA1]", "Observable": "melting temperature", "Units of measure": "°C", "Quantitative result": 49.1}
{"Seq text": "MGTPQKDVIIKSDAPDTLLLEKHADYIASYGSKKDDYEYCMSEYLRMSGIYWGLTVMDLMGQLHRMNREEILAFIKSCQHECGGISASIGHDPHLLYTLSAVQILTLYDSINVIDVNKVVEYVKGLQKEDGSFAGDIWGEIDTRFSFCAVATLALLGKLDAINVEKAIEFVLSCMNFDGGFGCRPGSESHAGQIYCCTGFLAITSQLHQVNSDLLGWWLCERQLPSGGLNGRPEKLPDVCYSWWVLASLKIIGRLHWIDREKLRNFILACQDEETGGFADRPGDMVDPFHTLFGIAGLSLLGEEQIKPVNPVFCMPEEVLQRVNVQPELVS [RABGGTB]", "Observable": "melting temperature", "Units of measure": "°C", "Quantitative result": 49.8}
{"Seq text": "MSKSLKKLVEESREKNQPEVDMSDRGISNMLDVNGLFTLSHITQLVLSHNKLTMVPPNIAELKNLEVLNFFNNQIEELPTQISSLQKLKHLNLGMNRLNTLPRGFGSLPALEVLDLTYNNLSENSLPGNFFYLTTLRALYLSDNDFEILPPDIGKLTKLQILSLRDNDLISLPKEIGELTQLKELHIQGNRLTVLPPELGNLDLTGQKQVFKAENNPWVTPIADQFQLGVSHVFEYIRSETYKYLYGRHMQANPEPPKKNNDKSKKISRKPLAAKNR [RSU1]", "Observable": "melting temperature", "Units of measure": "°C", "Quantitative result": 50.3}

Ask: For MAAAEPSPRRVGFVGAGRMAGAIAQGLIRAGKVEAQHILASAPTDRNLCHFQALGCRTTHSNQEVLQSCLLVIFATKPHVLPAVLAEVAPVVTTEHILVSVAAGVSLSTLEELLPPNTRVLRVLPNLPCVVQEGAIVMARGRHVGSSETKLLQHLLEACGRCEEVPEAYVDIHTGLSGSGVAFVCAFSEALAEGAVKMGMPSSLAHRIAAQTLLGTAKMLLHEGQHPAQLRSDVCTPGGTTIYGLHALEQGGLRAATMSAVEAATCRAKELSRK [PYCRL] , write its melting temperature.
Result: 53.5

Ask: For MAAGGRMEDGSLDITQSIEDDPLLDAQLLPHHSLQAHFRPRFHPLPTVIIVNLLWFIHLVFVVLAFLTGVLCSYPNPNEDKCPGNYTNPLKVQTVIILGKVILWILHLLLECYIQYHHSKIRNRGYNLIYRSTRHLKRLALMIQSSGNTVLLLILCMQHSFPEPGRLYLDLILAILALELICSLICLLIYTVKIRRFNKAKPEPDILEEEKIYAYPSNITSETGFRTISSLEEIVEKQGDTIEYLKRHNALLSKRLLALTSSDLGCQPSRT [TMEM192] , write its melting temperature.
Result: 55.6
